Where do the numbers come from? From ChEMBL document CHEMBL1201862.

Tested on: HCT-116
Assay: NCI tumour cell line growth inhibition, 48 h
The source made the active and inactive calls. No stated cut-off is given here; in the data, active = GI50 up to about 1.1 µM and inactive = higher.
Possible outcomes: label 1 for active, label 0 for inactive

>>> classification("COc1ccc(CC2C(=O)NC(C)C(=O)N(C)C3C(=O)N(C)C(Cc4ccc(O)c(c4)Oc4ccc(cc4)C3O)C(=O)NC(C)C(=O)NC(C)C(=O)N2C)cc1 (centres undefined)")
"label 1"
>>> classification("c1ccc(C/C(=N\\Nc2nc3ccccc3o2)c2ccccn2)cc1")
"label 1"
>>> classification("CC(C)[C@H](O)C(=O)N[C@H]1Cc2ccc3c(c2)[C@]24C5=C(N=C(O5)[C@H](C(C)C)NC1=O)c1nc(Cl)c(o1)-c1c(Cl)[nH]c5cccc(c15)-c1cccc2c1N[C@H]4O3")
"label 1"
>>> classification("CCCC/C(C)=N/NC(N)=S")
"label 0"
>>> classification("COC(=O)C(C#N)C1NC(=O)c2ccccc21 (centres undefined)")
"label 0"
>>> classification("O=C1c2c(O)cccc2C(C(=O)CCCCC(=O)C2c3cccc(O)c3C(=O)c3c(O)cccc32)c2cccc(O)c21")
"label 1"
>>> classification("O=[N+]([O-])c1ccc(Cl)c(CNc2ncnc3c2ncn3C2CCCCO2)c1 (centres undefined)")
"label 0"
>>> classification("c1ccc2cc(-c3cc(-c4cc(-c5ccc6ccccc6c5)on4)no3)ccc2c1")
"label 0"
>>> classification("O=c1[nH]cnc2[nH]nnc12")
"label 0"
